Just for reference, PubChem BioAssay (NCI) is where these values come from.

So I've got a bunch of compounds here, and I need their TGI values.
# System: SNB-78 CNS
# procedure-details: NCI tumour cell line growth inhibition, 48 h

In: Name the recorded TGI for CCCCN(CCCC)C(=Nc1ccccc1)N(CCCC)CCCC .
Out: 41 µM

In: Quick one: CO/C(=N\N=C\c1ccc(Cl)cc1)c1ccncc1
Out: > 100 µM

In: Now this one: CC(C)c1ccc2c(c1)CCC1C(C)(C)[C@@H](O)CC[C@]21C (stereo partly specified)
Out: > 100 µM

In: Now give it for COC(=O)C1=C(O)C(O)=C(C(=O)OC)CC1 too.
Out: > 100 µM

In: Same thing, different compound: CN(C)N=Nc1ccc([N+](=O)[O-])cc1C(N)=O
Out: > 100 µM

In: What about this compound? COC(=O)C1Cc2c([nH]c3ccccc23)[C@H](CC(C)C)N1 (stereo partly specified)
Out: > 100 µM

====

Answer each item with its documented GI50.
# Test system: SN12C renal
# procedure-details: NCI tumour cell line growth inhibition, 48 h

In: Look up GI50: FC(F)(F)c1ccc2nc(-c3nc(-c4ccccc4)n4ccccc34)[nH]c2c1
Out: 2.59 µM

In: // same read-out, input: CC/C=C/[C@@H]1C=C[C@@H]2CCC[C@H]2[C@@H]1CC[C@H](O)[C@H](C)N
Out: 4.25 µM

In: Now consider Cc1cc(Cl)n2c(nc3ccccc32)c1C#N .
Out: 0.499 µM

In: Again, but for CCN(CC)CCCCCCCCNc1c2ccc(Cl)cc2nc2ccc(OC)cc12
Out: 1.64 µM

====

Please provide measured TGI for the entries that follow.
# Test system: CCRF-CEM leukemia
# procedure-details: NCI tumour cell line growth inhibition, 48 h
Give the value, in units of µM, as a plain number.

In: For CCNc1nc(N)c(C(=O)c2ccc(Cl)cc2)s1 , what is its reported TGI?
Out: 22.6

In: And what about the compound COc1ccc(/C=C2/SC(=Nc3c(C)nn(-c4ccccc4)c3N)NC2=O)cc1 ?
Out: 20.8

In: Record: CN(C)CCCn1c(Cc2ccccc2)nc2cc(C(F)(F)F)ccc21
Out: 40.3

====

# System: NCI-H23 lung
# procedure-details: NCI tumour cell line growth inhibition, 48 h; in the data active = GI50 below about 0.43 µM; inactive = the rest
Returns: one label drawn from active, inactive

In: Which outcome was entered for the molecule CCN(CC)CCn1c(=N)n(CC(O)c2ccc(Cl)c(Cl)c2)c2ccccc21 (centres undefined) in this test?
Out: inactive

In: And the next one, COc1cc(-c2cc(-c3ccc(N(C)C)cc3)nc(N3CCC(O)CC3)c2C#N)cc(OC)c1OC ?
Out: inactive

In: Same read-out for COc1cc([C@@H]2c3cc4c(cc3[C@H](OC3OC5COC(c6ccccc6)OC5C(O)C3O)[C@H]3COC(=O)[C@H]23)OCO4)cc(OC)c1OC (some centres undefined) ?
Out: active

In: COC12C=C/C(=C(/C(=O)OCc3ccncn3)C(=O)CCCCCCCCC3(OC)C=C/C(=C(/C(=O)OCc4ccncn4)C(=O)CCCCCCCC1)O3)O2 ?
Out: active

====

# Test system: RPMI-8226 leukemia
# procedure-details: NCI tumour cell line growth inhibition, 48 h
Exercise: for every item that follows, state its recorded TGI.

In: Bench note: what TGI did O=C(CCCCCCc1nc2ccc(Br)cc2[nH]1)NO show?
Out: > 100 µM

In: # repeat for O=C(CC1Sc2ccccc2NC1=O)Nc1cccc(Cl)c1 (stereo unspecified)
Out: 69.6 µM

In: Again, but for O=C1COC(c2ccccc2O)=NN1CCCN1CCCC1
Out: > 100 µM

In: Record: CC(=O)NC1(C)CCC(C(C)(C)NC(C)=O)CC1 (stereo unspecified)
Out: > 100 µM

In: Repeat for the following compound: C/C(O)=C/c1nc2ccccc2nc1/C=C(/C)O
Out: 56.5 µM

In: Same question for COc1cc(C2c3cc4c(cc3C(O)C3CCC(=O)N23)OCO4)cc(OC)c1OC (stereo unspecified) please.
Out: > 100 µM

====

Exercise: for every item that follows, state its recorded TGI.
# System: HCT-116 colon
# procedure-details: NCI tumour cell line growth inhibition, 48 h

In: What does the record list as TGI for N#Cc1c(N)nn(C(=O)c2ccc(NC(=O)c3ccccn3)cc2)c1-c1ccc(Cl)cc1 ?
Out: > 100 µM

In: Also CC(=O)NC1(C)CCC(C(C)(C)NC(C)=O)CC1 (stereo not given) ?
Out: > 100 µM

In: Now give it for c1ccc([CH2][Sn]([CH2]c2ccccc2)([S]c2cccc3cccnc23)[S]c2cccc3cccnc23)cc1 too.
Out: 0.351 µM

In: Follow-up item: CCOC(=O)C(=[N+]=[N-])C(=O)C[N+]12CCN(CC1)CC2
Out: > 100 µM

In: Follow-up entry: CN(C)CCCn1cnc2ncccc2c1=O
Out: > 100 µM

In: For CC(=O)O[C@@H]1C=CC(=O)C2(CC(=O)O[C@@H]2/C=C(\C)CCC=C(C)C)C1 (stereo not given in full) then?
Out: 1.71 µM

In: Record: COc1ccc([C@H]2c3cc(OC)c(OC)cc3C=C(C=O)C2CO)cc1OC (stereo not given in full)
Out: > 100 µM

In: // same read-out, input: [O-][n+]1onc2c3nn(-c4ccccc4)nc3ccc21
Out: > 100 µM

In: How about COc1ccc(/C=N\N2CC(=O)N3C4C=CC(CC4)N3C2=O)cc1 (stereo not given) ?
Out: > 100 µM

In: Entry Cc1nc2c(cc1C(=O)NN)c(=O)n(C)c(=O)n2C please
Out: > 100 µM

====

# System: SF-268 CNS
# procedure-details: NCI tumour cell line growth inhibition, 48 h; in the data active = GI50 below about 0.43 µM; inactive = the rest
Would you mind answering with one of these outcomes? active, inactive

In: Query: recorded result category for COc1ccc(C(=O)CC2(O)C(=O)Nc3c(Cl)ccc(Cl)c32)cc1 (configuration not stated) in this test
Out: inactive

In: Lookup Cc1nc2c(cnn2-c2ccnc3c(C(F)(F)F)cccc23)c(=O)o1
Out: inactive

In: Then this molecule: COc1ccc(C(=O)c2cc3c(N)c(C(=O)Nc4cccc(Cl)c4)sc3nc2C)cc1
Out: inactive

In: Please do the same for CCOC(=O)c1cc2c(n1Cc1cccc(OC)c1)-c1oncc1CC2 as well.
Out: inactive

In: Now consider CC[C@]1(O)C[C@@H]2CN(Cc3c([nH]c4ccccc34)[C@@](C(=O)OC)(c3cc4c(cc3OC)N(C)[C@H]3[C@@](O)(C(=O)OC)[C@H](OC(C)=O)[C@]5(CC)[C@@H]6C[C@@H]6CN6CC[C@]43[C@@H]65)C2)C1 .
Out: active

In: Can you handle COc1ccc(C(=O)/C=C/c2ccc(Cl)cc2)cc1S(N)(=O)=O next?
Out: inactive

In: One more molecule: C=C1C(=O)O[C@@H]2[C@@H]3O[C@@](C)(CC/C=C(\C)CCC[C@@H]2C)[C@H](O)C[C@@H]13
Out: inactive

====

Record form. Attribute: TGI. Fill in for each entry.
# System: UO-31 renal
# procedure-details: NCI tumour cell line growth inhibition, 48 h
Report the figure in µM without appending any unit label.

In: Any idea what TGI was measured for O=S(=O)(c1ccccc1)n1c(C(O)c2ccncc2)cc2ccccc21 (centres undefined) ?
Out: 44.7

In: Param item: CCOC(=O)c1cnc2ccc(Cl)cc2c1NCCCN(C)C
Out: 57

In: What do we get for COc1cc(C2c3cc4c(cc3C(O)C3CCC(=O)N23)OCO4)cc(OC)c1OC (centres undefined) ?
Out: 71.2

In: One more compound: O=C(Nc1ccc(Cl)c(Cl)c1)Nc1ccc(Cl)c([N+](=O)[O-])c1
Out: 2.92

In: Another compound: CC/C=C/[C@@H]1C=C[C@@H]2CCC[C@H]2[C@@H]1CC[C@H](O)[C@H](C)N
Out: 4.91

====

# System: MCF7 breast
# procedure-details: NCI tumour cell line growth inhibition, 48 h
Decision: TGI >= 8 µM yields 1.0, all other cases yield 0.0.

In: Check the entry C=CCNC1=C2C[C@@H](C)C[C@@H](OC)C(OC(=O)CCCN(C)C)[C@H](C)/C=C(\C)[C@@H](OC(N)=O)[C@H](OC)/C=C\C=C(/C)C(=O)NC(=CC1=O)C2=O (some centres not stated) : does TGI equal or exceed 8 µM?
Out: 1.0

In: Record: O=C(CCc1cccc(O)c1)NCCc1cccc(O)c1
Out: 1.0

In: Next up: COCn1c(C)c(C)c2c(=O)oc(=O)[nH]c21
Out: 1.0

In: Subsequent entry: COc1cc(/C=C2\C[C@H]3[C@@H]4CC=C5C[C@@H](N6CCCC6)CC[C@]5(C)[C@H]4CC[C@]3(C)[C@H]2O)cc(OC)c1OC
Out: 1.0

In: Quick one: CN(Cc1c2ccccc2cc2ccccc12)S(=O)(=O)c1ccc(-c2c3nc(c(-c4ccc(S(=O)(=O)N(C)Cc5c6ccccc6cc6ccccc56)cc4)c4ccc([nH]4)c(-c4ccc(S(=O)(=O)N(C)Cc5c6ccccc6cc6ccccc56)cc4)c4nc(c(-c5ccc(S(=O)(=O)N(C)Cc6c7ccccc7cc7ccccc67)cc5)c5ccc2[nH]5)C=C4)C=C3)cc1
Out: 1.0

In: Please do the same for COc1ccc2oc(S(=O)(=O)N3CC(CCl)c4ccc([N+](=O)[O-])cc43)cc2c1 (configuration not stated) as well.
Out: 1.0

In: What do we get for COc1ccc(CCNc2nc3ccccc3c3[nH]c4ccccc4c23)cc1OC ?
Out: 0.0

In: Record: O=c1c(Cl)nsnc1Cl
Out: 1.0

In: // repeat for NC(=O)C/C=C/CC(N)=O and report
Out: 1.0

In: Try the molecule CCNC(=S)N/N=C/c1cc(OC)ccc1O
Out: 1.0

In: Next record, please: Nc1ccc2c(c1)C1Oc3ccccc3CC1CO2 (configuration not stated)
Out: 1.0

In: Entry to check: O=P(O)(O)OC1C(OP(=O)(O)O)C(OP(=O)(O)O)C(OP(=O)(O)O)C(OP(=O)(O)O)C1OP(=O)(O)O (configuration not stated)
Out: 1.0

In: Similarly, Cc1cc2c(-c3nc4ccccc4[nH]3)c(O)c(O)cc2c(O)c1-c1c(C)cc2c(-c3nc4ccccc4[nH]3)c(O)c(O)cc2c1O ?
Out: 0.0

In: Likewise for CCSc1ncnc2c(C3OC(CO)C(O)C3O)nsc12 (configuration not stated) ?
Out: 1.0

In: What about CC(=O)O[C@@H]1C=CC(=O)C2(CC(=O)O[C@@H]2/C=C(\C)CCC=C(C)C)C1 (some centres not stated) ?
Out: 0.0

In: Same question, CC(=O)N1N=C(c2c(O)ccc3ccccc23)CC1C(=O)c1ccco1 (configuration not stated) this time
Out: 1.0

In: Now give it for O=c1ccc2nc(-c3ccccc3)nn(-c3ccccc3)c-2c1 too.
Out: 0.0

In: How about this molecule: O=[N+]([O-])c1ccc2c(c1)nc(Cc1ccccc1)n2C[C@@H]1CCCN2CCCCC12 (some centres not stated)
Out: 1.0

In: // query: Cc1c(CNc2ccc(Cl)c(C(=O)NC(CC(=O)O)C(=O)O)c2)ccc2nc(N)nc(N)c12 (configuration not stated)
Out: 1.0

In: Repeat with O=C(O)Cc1ccc(Oc2nc3ccccc3nc2-c2cccs2)cc1
Out: 1.0

In: And the next one, C[C@]12CC[C@H]3[C@@H](CCC4=CC(=O)C=C[C@@]43O)[C@@H]1CCC2=O ?
Out: 1.0

In: What do you have for Cc1ncc(C(=O)Nc2ccc(CN3CCN(C)CC3)c(C(F)(F)F)c2)cc1C#Cc1c(N)ncc2ccc(C#N)cc12 ?
Out: 1.0

In: Another molecule: CC1CN=C(Nc2cccc(C(F)(F)F)c2)S1 (configuration not stated)
Out: 1.0

In: Input COc1cc2c(cc1OCCCC(=O)Nc1cc(C(=O)Nc3cc(C(=O)Nc4cc(C(=O)NCCCN(C)C)n(C)c4)n(C)c3)n(C)c1)N=C[C@@H]1CCCN1C2=O
Out: 0.0

In: Moving on to the next molecule: O=C1COC(c2ccccc2O)=NN1CCCN1CCCC1
Out: 1.0

In: Moving on to the next molecule: CC(C)(C)c1cc(C(O)(C(=O)O)C(=O)O)cc(C(C)(C)C)c1O
Out: 1.0
